Below, each entry is listed alongside its reported melting point.
Parameter measured: melting point

Smiles entry | Result
CN1CCN(C(=O)c2ccc(-c3cc4c(N(C)C)ncnc4[nH]3)cc2)CC1 | 275 to 277 °C
CN(C)c1ncnc2[nH]c(-c3ccc(Cc4ccc[nH]4)cc3)cc12 | 285 to 287 °C
CCCNc1ncnc2[nH]c(-c3ccc(CN4CCN(C)CC4)cc3)cc12 | 232 to 234 °C
CNc1ncnc2[nH]c(-c3ccc(C(C)(C)O)cc3)cc12 | 280 to 283 °C
CN(C)c1ncnc2[nH]c(-c3ccc(Cn4cnnn4)cc3)cc12 | 275 to 278 °C
CCCN(C)c1ncnc2[nH]c(-c3ccc(CN4CCN(C)CC4)cc3)cc12 | 220 to 221 °C
CN1CCN(C(=O)c2ccc(-c3cc4c(NCCCO)ncnc4[nH]3)cc2)CC1 | 302 to 305 °C
CN1CCN(C(=O)c2ccc(-c3cc4c(N5CCN(C)CC5)ncnc4[nH]3)cc2)CC1 | 243 to 245 °C
CN(C)CCNc1ncnc2[nH]c(-c3ccc(C(=O)N4CCN(C)CC4)cc3)cc12 | 268 to 270 °C

====

Below, each entry is listed alongside its reported melting point.
Parameter measured: melting point

Smiles entry | Parameter measured | Result
COCCN(CCOC)c1ncnc2[nH]c(-c3ccc(C(C)(C)O)cc3)cc12 | melting point | 165 to 167 °C
CN(C)c1ncnc2[nH]c(-c3ccc(C(=O)NCCCN4CCOCC4)cc3)cc12 | melting point | 260 to 262 °C
COCCN(C)Cc1ccc(-c2cc3c(N(C)C)ncnc3[nH]2)cc1 | melting point | 157 to 158 °C
CN(C)c1ncnc2[nH]c(-c3ccc(C(C)(C)O)cc3)cc12 | melting point | > 300 °C
CNC(=O)c1ccc(-c2cc3c(NC)ncnc3[nH]2)cc1 | melting point | > 300 °C
CCC(O)(CC)c1ccc(-c2cc3c(NCCCN4CCOCC4)ncnc3[nH]2)cc1 | melting point | 175 to 177 °C
CCC(O)(CC)c1ccc(-c2cc3c(NCCCn4cccc4)ncnc3[nH]2)cc1 | melting point | 180 to 182 °C
CN1CCN(Cc2ccc(-c3cc4c(N(C)C)ncnc4[nH]3)cc2)CC1 | melting point | 252 to 254 °C
CN(C)c1ncnc2[nH]c(-c3ccc(C(=O)N4CCOCC4)cc3)cc12 | melting point | 316 to 318 °C
CN(C)c1ncnc2[nH]c(-c3ccc(CNCCCO)cc3)cc12 | melting point | 218 to 220 °C
CCCCOCc1ccc(-c2cc3c(N(C)C)ncnc3[nH]2)cc1 | melting point | 186 to 188 °C
CNc1ncnc2[nH]c(-c3ccc(C(=O)N4CCN(C)CC4)cc3)cc12 | melting point | 315 °C
CCCNc1ncnc2[nH]c(-c3ccc(C(=O)N4CCN(C)CC4)cc3)cc12 | melting point | 302 to 305 °C
CCC(O)(CC)c1ccc(-c2cc3c(N(CCOC)CCOC)ncnc3[nH]2)cc1 | melting point | 83 to 85 °C

====

Below, each entry is listed alongside its reported c-Raf-1/ %-inh. [%].
# System name: c-Raf-1 (Homo sapiens, UniProt P04049)
# Construct: made in house; host or cells: Sf21 insect cells, triple baculovirus infection (GST-c-Raf-1, v-Ras, v-Src)
# Sequence (P04049 whole entry): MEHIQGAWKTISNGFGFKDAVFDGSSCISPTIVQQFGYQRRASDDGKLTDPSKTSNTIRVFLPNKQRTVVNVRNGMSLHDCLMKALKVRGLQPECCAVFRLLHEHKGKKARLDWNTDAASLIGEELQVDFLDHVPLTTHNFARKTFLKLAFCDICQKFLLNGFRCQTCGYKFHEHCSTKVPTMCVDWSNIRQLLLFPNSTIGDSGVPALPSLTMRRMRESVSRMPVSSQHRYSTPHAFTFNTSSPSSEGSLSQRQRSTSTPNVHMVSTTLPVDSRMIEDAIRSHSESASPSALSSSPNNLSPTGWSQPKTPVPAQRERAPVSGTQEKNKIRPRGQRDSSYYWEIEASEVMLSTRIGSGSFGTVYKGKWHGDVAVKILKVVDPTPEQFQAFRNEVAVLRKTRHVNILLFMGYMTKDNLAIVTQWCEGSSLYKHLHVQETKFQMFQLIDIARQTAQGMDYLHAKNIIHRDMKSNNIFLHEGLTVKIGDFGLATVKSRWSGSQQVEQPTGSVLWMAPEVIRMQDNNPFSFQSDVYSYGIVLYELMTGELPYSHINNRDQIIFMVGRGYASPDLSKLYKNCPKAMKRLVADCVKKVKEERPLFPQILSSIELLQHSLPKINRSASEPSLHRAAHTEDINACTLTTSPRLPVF
# Assay text: c-Raf-1 protein kinase assay
# Assay type: biochemical
# Design: dose or concentration left out as unconfirmed

Smiles entry | c-Raf-1/ %-inh. [%] / %
CN(C)c1ncnc2[nH]c(-c3ccc(Cn4ccnc4)cc3)cc12 | 100
CNc1ncnc2[nH]c(-c3ccc(C(=O)N4CCN(C)CC4)cc3)cc12 | 22
CN1CCN(C(=O)c2ccc(-c3cc4c(N(C)C)ncnc4[nH]3)cc2)CC1 | 51
CN1CCN(Cc2ccc(-c3cc4c(N(C)C)ncnc4[nH]3)cc2)CC1 | 40
CNc1ncnc2[nH]c(-c3ccc(C(C)(C)O)cc3)cc12 | 44
CN(C)c1ncnc2[nH]c(-c3ccc(CNCCCO)cc3)cc12 | 80
CN(C)c1ncnc2[nH]c(-c3ccc(Cn4cnnn4)cc3)cc12 | 100
CN1CCN(C(=O)c2ccc(-c3cc4c(NCCCO)ncnc4[nH]3)cc2)CC1 | 64
CCN(CC)CCCNC(=O)c1ccc(-c2cc3c(N(C)C)ncnc3[nH]2)cc1 | 48

Data provenance is patent US7625894B2.
